// provenance: PubChem BioAssay AID1950

Recorded inhibition by entry
Test system: EBNA-1 (Epstein-Barr virus nuclear antigen 1), Human herpesvirus 4
Experiment: EBNA-1 DNA-binding inhibitors, primary screen, biochemical, fluorescence polarization (AID 1950)
Settings: at 14.8 µM, hits give high values
The campaign covered roughly 300,000 compounds. About 1,000 (0.33%) were called active. Shown is part of a subset that was picked to be rich in actives.

• O=C(Nc1cccc(Br)c1)c1ccc2snnc2c1 = -4.42% (inactive)

Reported inhibition of CCOc1ccc(N=C2NC(=O)S/C2=C\c2ccc(O)cc2)cc1 : 22% (inactive)

* * *

Test system: EBNA-1 (Epstein-Barr virus nuclear antigen 1), Human herpesvirus 4
Experiment: EBNA-1 DNA-binding inhibitors, primary screen, biochemical, fluorescence polarization (AID 1950)
Conditions: at 14.8 µM, hits give high values
About 1,000 (0.33%) of roughly 300,000 compounds were called active. This is one part of a sample in which actives are shown more often than they occur.
Recorded inhibition by entry
Respond with the bare value in %.

Example cases with answers are listed next.
• Cn1c(-c2ccc(F)cc2)cnc1SCC(=O)NCc1ccco1 = 3.48
• CCOc1ccc(C(C(=O)NCCOC)N(CCOC)C(=O)CCC(=O)Nc2ccccn2)cc1 (stereo not given) = -5.61
• COc1ccc(C(C[N+](=O)[O-])n2nc(C)cc2C)cc1 (stereo not given) = 11
• OC(COc1ccc(CN2CCSCC2)cc1)CN1CCCCC1 (stereo not given) = 3.92

Lab note: next molecule to report on.
Reported inhibition of COc1ccc(C)cc1NC(=O)NCCCCc1ccccc1 : 2.71

* * *

Recorded inhibition by entry
System: EBNA-1 (Epstein-Barr virus nuclear antigen 1), Human herpesvirus 4
Experiment: EBNA-1 DNA-binding inhibitors, primary screen, biochemical, fluorescence polarization (AID 1950)
Settings: at 14.8 µM, hits give high values
Hit rate of the full screen: of about 300,000 compounds, about 1,000 (0.33%) were called active. Shown is part of a subset that was picked to be rich in actives.
Respond with the bare value in %.

Example cases with answers are listed next.
* Oc1cccc2ccc(/C=C/c3ccc(Br)s3)nc12 | 7.77
* CC(C)C[C@H]1CN=C(Nc2ccccc2)N1CC1CCCCC1 | 0.22

Reported inhibition of O=C(Nc1cccc(O)c1)c1ccc(C(=O)c2ccccc2)o1 : 10.1

Reported inhibition of CCOc1ccc(C(=O)NC(=S)Nc2ccc(N3CCOCC3)c(Cl)c2)cc1[N+](=O)[O-] : 7.49

Reported inhibition of CCN(CC(=O)Nc1c(F)cccc1F)C(=O)C1CCC1 : -2.05

Reported inhibition of CC(=O)NC(CC(=O)Nc1nc(-c2ccccc2)c(C(C)=O)s1)c1ccccc1 (stereo not drawn) : 6.2

Reported inhibition of CC(=O)c1c(C)[nH]c(C(=O)OCC(=O)Nc2sc3c(c2C#N)CCCC3)c1C : 42.2

Reported inhibition of COc1ccc(NC2CCCN(C(=O)c3ccncc3)C2)cc1 (stereo not drawn) : 5.52

* * *

System: EBNA-1 (Epstein-Barr virus nuclear antigen 1), Human herpesvirus 4
Test: EBNA-1 DNA-binding inhibitors, primary screen, biochemical, fluorescence polarization (AID 1950)
Settings: at 14.8 µM, hits give high values
Among all 300,000 compounds or so, about 1,000 (0.33%) were called active. What follows is part of a selection rich in actives, with near analogues and random picks from the rest.
Recorded inhibition by entry
Respond with the bare value in %.

- COc1ccc2c(c1)C(C)=CC(C)(C)N2C(=O)CNCc1ccc2c(c1)OCO2: 3.99
- CC(C)CNC(=O)C(=O)Nc1ccc(N(C)C)cc1: -3.03
- CCOC(=O)C1=C(C)Nc2nc3ccccc3n2C1c1cccs1 (centres undefined): 3.55
- Cc1nc2ccc(S(=O)(=O)N(C)CC(=O)NC(C)c3ccccc3)cc2s1 (centres undefined): -7.08
- CCOc1[nH]n(-c2ccc(Cl)cc2)c(=O)c1C=Nc1ccc(O)cc1: 36.6
- C=CCN(C(=O)Nc1ccc2oc(C)nc2c1)c1ccccc1: 14.4
- O=C(N/C(=C/c1ccc(Cl)cc1)C(=O)N1CCCCC1)c1ccco1: 7.31
- CC(Sc1nc2c([nH]c3ccccc32)c(=O)n1C)c1ccccc1 (centres undefined): 13.4

Lab note: next compound to report on.
Record CCC(=O)Nc1ccc(S(=O)(=O)Nc2c(NC)c3ccccc3oc2=O)cc1 has EBNA-1 (Epstein-Barr virus nuclear antigen 1), Human herpesvirus 4 inhibition equal to 8.74
